Data credit: ChEMBL document CHEMBL3593200

# measured on: UniProt:P10636
# Sequence (P10636 whole entry): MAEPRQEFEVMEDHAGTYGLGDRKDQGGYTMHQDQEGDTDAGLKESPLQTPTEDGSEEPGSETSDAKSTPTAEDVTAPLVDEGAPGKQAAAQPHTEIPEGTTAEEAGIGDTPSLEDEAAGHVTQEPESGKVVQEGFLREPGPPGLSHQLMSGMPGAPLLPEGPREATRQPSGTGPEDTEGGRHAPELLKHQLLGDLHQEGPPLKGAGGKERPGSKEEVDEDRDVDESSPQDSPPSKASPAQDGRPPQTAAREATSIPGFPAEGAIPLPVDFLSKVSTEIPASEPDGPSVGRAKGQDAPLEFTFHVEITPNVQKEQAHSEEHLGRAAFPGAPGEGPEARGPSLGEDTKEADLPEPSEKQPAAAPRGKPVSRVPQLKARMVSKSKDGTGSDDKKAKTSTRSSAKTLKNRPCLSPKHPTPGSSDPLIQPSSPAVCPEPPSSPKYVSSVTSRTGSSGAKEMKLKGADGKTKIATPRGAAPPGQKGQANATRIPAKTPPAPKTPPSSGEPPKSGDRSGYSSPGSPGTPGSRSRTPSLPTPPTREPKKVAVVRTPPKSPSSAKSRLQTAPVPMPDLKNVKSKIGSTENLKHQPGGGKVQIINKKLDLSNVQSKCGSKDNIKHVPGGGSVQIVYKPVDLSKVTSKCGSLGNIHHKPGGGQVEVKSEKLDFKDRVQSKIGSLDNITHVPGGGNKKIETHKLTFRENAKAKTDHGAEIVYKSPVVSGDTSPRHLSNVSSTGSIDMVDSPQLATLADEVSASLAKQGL
# method summary: Inhibition of wild type human recombinant tau 2N4R aggregation assessed as reduction of formation rate and number of aggregates at 1 uM after 48 hrs using Congo Red staining
The source made the active and inactive calls. No cut-off for these calls is given here.
endpoint name: inhibition

INSERT INTO results (mol_smiles, measured_on, endpoint_name, readout_value) VALUES
  ('CCN1/C(=C/C=C/c2sc3ccccc3[n+]2CC)Sc2ccc(Oc3no[n+]([O-])c3-c3ccccc3)cc21.[I-]', 'UniProt:P10636', 'inhibition', 'Active'),
  ('CCN1/C(=C/C=C/c2sc3ccc(OCCCO[N+](=O)[O-])cc3[n+]2CC)Sc2ccc(OCCCO[N+](=O)[O-])cc21.O=S(=O)([O-])C(F)(F)F', 'UniProt:P10636', 'inhibition', 'Active'),
  ('CCN1/C(=C/C=C/c2sc3ccccc3[n+]2CC)Sc2ccc(Oc3no[n+]([O-])c3S(=O)(=O)c3ccccc3)cc21.[I-]', 'UniProt:P10636', 'inhibition', 'Active'),
  ('CCN1/C(=C/C=C/c2sc3ccccc3[n+]2CC)Sc2ccc(OCCCO[N+](=O)[O-])cc21.[I-]', 'UniProt:P10636', 'inhibition', 'Active');

---

# measured on: Amyloid-beta precursor protein (Homo sapiens)
# Sequence (P05067 whole entry): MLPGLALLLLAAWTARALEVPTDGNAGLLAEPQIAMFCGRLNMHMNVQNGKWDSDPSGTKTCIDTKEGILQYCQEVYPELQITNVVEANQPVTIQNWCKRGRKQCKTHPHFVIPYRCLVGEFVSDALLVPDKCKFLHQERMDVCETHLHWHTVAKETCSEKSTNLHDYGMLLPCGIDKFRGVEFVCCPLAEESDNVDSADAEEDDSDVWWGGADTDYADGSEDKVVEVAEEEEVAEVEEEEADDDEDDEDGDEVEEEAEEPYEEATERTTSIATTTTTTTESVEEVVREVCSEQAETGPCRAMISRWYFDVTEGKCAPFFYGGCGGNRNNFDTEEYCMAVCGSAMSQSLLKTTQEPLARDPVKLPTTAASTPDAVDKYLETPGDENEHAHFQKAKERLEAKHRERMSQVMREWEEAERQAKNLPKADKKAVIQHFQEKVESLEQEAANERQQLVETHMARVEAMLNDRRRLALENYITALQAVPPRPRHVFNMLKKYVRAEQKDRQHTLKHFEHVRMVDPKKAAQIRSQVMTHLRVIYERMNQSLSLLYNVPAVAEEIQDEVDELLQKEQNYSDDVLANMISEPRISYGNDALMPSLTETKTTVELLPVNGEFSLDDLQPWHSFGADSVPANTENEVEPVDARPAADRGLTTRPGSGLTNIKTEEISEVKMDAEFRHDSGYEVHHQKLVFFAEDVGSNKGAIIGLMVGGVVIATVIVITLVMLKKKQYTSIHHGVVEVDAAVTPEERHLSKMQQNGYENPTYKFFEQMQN
# method summary: Inhibition of Amyloid beta (1 to 42) (unknown origin) aggregation assessed as amount of fibrils formation after 5 days by thioflavin T based spectrofluorimetric method
endpoint name: IC50 (nM)

INSERT INTO measurements (mol_smiles, readout_value) VALUES
  ('CCN1/C(=C/C=C/c2sc3ccccc3[n+]2CC)Sc2ccc(Oc3no[n+]([O-])c3-c3ccccc3)cc21.[I-]', 1600),
  ('CCN1/C(=C/C=C/c2sc3ccccc3[n+]2CC)Sc2ccc(OCCCO[N+](=O)[O-])cc21.[I-]', 7700),
  ('CCCOc1ccc2c(c1)N(CC)/C(=C/C=C/c1sc3ccccc3[n+]1CC)S2.[I-]', 800),
  ('CCN1/C(=C/C=C/c2sc3ccccc3[n+]2CC)Sc2ccccc21.[I-]', 3300);

---

# measured on: Amyloid-beta precursor protein (Homo sapiens)
# method summary: Inhibition of Amyloid beta (1 to 40) (unknown origin) aggregation assessed as amount of fibrils formation after 2 hrs by thioflavin T based spectrofluorimetric method
endpoint name: log10 IC50 (log10 of the value in µM)

INSERT INTO assay_data (mol_smiles, measured_on, endpoint_name, readout_value) VALUES
  ('CCN1/C(=C/C=C/c2sc3ccccc3[n+]2CC)Sc2ccc(Oc3no[n+]([O-])c3S(=O)(=O)c3ccccc3)cc21.[I-]', 'Amyloid-beta precursor protein (Homo sapiens)', 'log10 IC50', 1.32),
  ('CN(C)c1ccc2nc3ccc(=[N+](C)C)cc-3sc2c1', 'Amyloid-beta precursor protein (Homo sapiens)', 'log10 IC50', 0.65),
  ('CCN1/C(=C/C=C/c2sc3ccccc3[n+]2CC)Sc2ccc(Oc3no[n+]([O-])c3-c3ccccc3)cc21.[I-]', 'Amyloid-beta precursor protein (Homo sapiens)', 'log10 IC50', 0.26),
  ('CCN1/C(=C/C=C/c2sc3ccccc3[n+]2CC)Sc2ccccc21.[I-]', 'Amyloid-beta precursor protein (Homo sapiens)', 'log10 IC50', 0.49),
  ('CCCOc1ccc2c(c1)N(CC)/C(=C/C=C/c1sc3ccccc3[n+]1CC)S2.[I-]', 'Amyloid-beta precursor protein (Homo sapiens)', 'log10 IC50', 0.85),
  ('CCN1/C(=C/C=C/c2sc3ccccc3[n+]2CC)Sc2ccc(OCCCO[N+](=O)[O-])cc21.[I-]', 'Amyloid-beta precursor protein (Homo sapiens)', 'log10 IC50', 0.91);
